// data source = ChEMBL document CHEMBL1201862

Provide the recorded GI50 for the entries that follow.
- System: KM-20L2
- TEST: NCI tumour cell line growth inhibition, 48 h
Active and inactive are the calls of the source. Cut-off read from the data, not from the text of the source: active = GI50 up to about 1.1 µM and inactive = higher.

Recorded result, Cn1c(-c2ccccc2)c/c(=N\NS(C)(=O)=O)c2cc(S(=O)(=O)O)ccc21 , GI50: > 100 µM (inactive)

Recorded result, COc1cc(/C=C(/C#N)C(N)=O)ccc1O , GI50: > 100 µM (inactive)

Recorded result, C=C(C)C(=O)OC1C/C(CO)=C\C(O)C/C(C)=C/C2OC(=O)C(=C)C21 (configuration not stated) , GI50: 30.3 µM (inactive)

Recorded result, O=[N+]([O-])c1ccc2nc3ccscc-3c2c1 , GI50: 25.2 µM (inactive)

Recorded result, CN(C)c1ccc(O[Si](Oc2ccc(N(C)C)cc2)(Oc2ccc(N(C)C)cc2)Oc2ccc(N(C)C)cc2)cc1 , GI50: > 100 µM (inactive)

Recorded result, Cc1cccc(C)c1NC(=O)CCCC(=O)CC(=O)/C=C/c1ccccc1 , GI50: > 100 µM (inactive)

Recorded result, COc1ccccc1NC(=O)C(CC(C(=O)Nc1ccccc1OC)/C(C)=N/Nc1ccc([N+](=O)[O-])cc1[N+](=O)[O-])/C(C)=N/Nc1ccc([N+](=O)[O-])cc1[N+](=O)[O-] (configuration not stated) , GI50: > 100 µM (inactive)

Recorded result, C#CCC[C@@H]1O[C@@]1(C)CC/C=C(\C)CC/C=C/C=O , GI50: 36.4 µM (inactive)

Recorded result, CCN(C(=N)C#N)c1ccccc1 , GI50: > 100 µM (inactive)

Recorded result, Cc1cc(C2CCCCC2)n(O)c(=O)c1 , GI50: 12 µM (inactive)

Recorded result, C=CCNC(=O)N(CCCCC(NC(C)=O)C(=O)NCc1ccccc1)Cc1ccccc1 (configuration not stated) , GI50: > 100 µM (inactive)

Recorded result, CCN(CC)c1ccc(/N=N\c2ccc(-c3nc4ccc[n+](C)c4s3)cc2)cc1 , GI50: 6.78 µM (inactive)

Recorded result, CC(C)(C)C1(c2ccc(C3(c4ccccc4)Oc4ccccc4S3)[nH]2)Oc2ccccc2S1 (configuration not stated) , GI50: > 100 µM (inactive)

Recorded result, CCCCCCCOc1ccc(/C=C\c2cc[n+](CCCCCCCC[n+]3ccc(/C=C\c4ccc(OCCCCCCC)cc4)cc3)cc2)cc1 , GI50: 29.6 µM (inactive)

Recorded result, CCOC(=O)C1C(NC(N)=O)N(Cc2ccccc2)C(=O)N1Cc1ccccc1 (configuration not stated) , GI50: 41.3 µM (inactive)

Recorded result, CC(=O)[C@]1(O)Cc2c(O)c3c(c(O)c2[C@@H](OC2CC(N)C(O)C(C)O2)C1)C(=O)c1c(OCc2ccccc2)cccc1C3=O (some centres not stated) , GI50: 1.15 µM (inactive)

Recorded result, CC1(C)CC(C)(C)CC(O)(C2(O)CC(C)(C)CC(C)(C)C2)C1 , GI50: > 100 µM (inactive)

Recorded result, CCCCCCCCCCCCCCNCC(OC)OC , GI50: 14.4 µM (inactive)

Recorded result, N/C(=N\O)N/N=C\c1c(O)cc(O)cc1O , GI50: > 100 µM (inactive)

Recorded result, COc1ccc(OC(C(=O)O)c2ccccc2)c2c1CCCC2=O (configuration not stated) , GI50: > 100 µM (inactive)

Recorded result, Cc1ccc(S(=O)(=O)N/N=C\c2c3ccccc3[n+]([O-])c3ccccc23)cc1 , GI50: 2.96 µM (inactive)

Recorded result, CC1CC[C@]2(C(=O)O)CCC3(C)C(=CC(=O)C4[C@@]5(C)CCC(=O)C(C)(C)C5CC[C@]43C)[C@@H]2[C@H]1C (some centres not stated) , GI50: > 10 µM (inactive)

Recorded result, Cc1[nH]c(=O)[nH]c(=O)c1/C=C/C(=O)NC(CO)C[S+]([O-])Cc1ccccc1 (configuration not stated) , GI50: > 300 µM (inactive)

Recorded result, Cn1cc(NC(=O)c2cc(NC(=O)CCCCCCCC(=O)Nc3cc(C(=O)Nc4cc(C(=O)NCCC(=N)N)n(C)c4)n(C)c3)cn2C)cc1C(=O)NCCC(=N)N , GI50: > 100 µM (inactive)

Recorded result, CC1=C2C(O)C(C(C)C(=O)NCC(C)C)CCC2(C)C=CC1=O (configuration not stated) , GI50: > 100 µM (inactive)

Recorded result, CC1CCC2(C(=O)O)CCC3(C)C(=CCC4C5(C)CCC(O)C(C)(C)C5CCC43C)C2C1C (configuration not stated) , GI50: 8.24 µM (inactive)

Recorded result, COC(=O)c1sc(C(=O)OC)c2c1C[S+]([O-])C2 , GI50: > 100 µM (inactive)

###

Provide the recorded GI50 for the entries that follow.
- Test system: T47D
- TEST: NCI tumour cell line growth inhibition, 48 h
Calls of active or inactive are those of the source. Cut-off read from the data, not from the text of the source: active = GI50 up to about 1.1 µM and inactive = higher.

Lab note: compound [N-]=[N+]=NC1=C(c2ccccc2)C(=O)c2cccc3cccc1c23 tested on T47D; recorded GI50 was 5.12 µM (inactive)

Lab note: compound CCc1cc2c(cc1C(=O)CCC(=O)O)CC1(C2)Cc2cc(CC)c(C(=O)CCC(=O)O)cc2C1 tested on T47D; recorded GI50 was > 100 µM (inactive)

Lab note: compound COc1cc(S(=O)(=O)N/N=C/C=C/c2ccccc2)c(OC)cc1NC(C)=O tested on T47D; recorded GI50 was 69.5 µM (inactive)

Lab note: compound O=[N+]([O-])c1ccc(Cl)c2c([N+](=O)[O-])cccc12 tested on T47D; recorded GI50 was 4.22 µM (inactive)

Lab note: compound COC1=N[C@H](C(C)C)C(OC)=N[C@H]1Cc1ccc(C[C@@H]2N=C(OC)[C@@H](C(C)C)N=C2OC)s1 tested on T47D; recorded GI50 was 13.5 µM (inactive)

Lab note: compound CC1(C)CC(=O)C(CC(C(=O)C(=O)Nc2cc(C(F)(F)F)ccc2Cl)C(=O)c2ccco2)C(=O)C1 (centres undefined) tested on T47D; recorded GI50 was > 100 µM (inactive)

Lab note: compound COc1ccc(C(=O)N2CCN(c3ccc4c(c3)OCC(=O)N4)CC2)cc1 tested on T47D; recorded GI50 was > 100 µM (inactive)

Lab note: compound Cc1ccc(S(=O)(=O)Oc2ccc(OS(=O)(=O)c3ccc(C)cc3)c3c2C(=O)c2ccccc2C3=O)cc1 tested on T47D; recorded GI50 was > 100 µM (inactive)

Lab note: compound Clc1cc(Cl)cc(C2ON=C(c3ccccc3)N2C23CC4CC(CC(C4)C2)C3)c1 (centres undefined) tested on T47D; recorded GI50 was > 10 µM (inactive)

###

- Test system: MDA-MB-231
- TEST: NCI tumour cell line growth inhibition, 48 h
Active and inactive are the calls of the source. Cut-off read from the data, not from the text of the source: active = GI50 up to about 1.1 µM and inactive = higher.
Field 'call' accepts active, inactive

// query What did this assay record as the result for COc1ccc(/C=N/CCC/N=C/c2ccc(OC)cc2O)c(O)c1 ?
// result inactive

// query What did this assay record as the result for O=C(CCCN1CCC2(CC1)NC(=O)c1ccccc1O2)c1ccc(F)cc1 ?
// result inactive

// query What did this assay record as the result for Cn1/c(=N\S(=O)(=O)c2ccccc2)n(S(=O)(=O)c2ccccc2)c2ccccc21 ?
// result inactive

// query What did this assay record as the result for COc1cc(/C=C2/C(=O)N(C(=O)c3ccccc3O)N=C2C)cc(OC)c1OC ?
// result inactive

// query What did this assay record as the result for CC1=NC2=Nc3nc(C)cc[n+]3CN2C=C1 ?
// result inactive

// query What did this assay record as the result for Oc1ccc2ccccc2c1-c1c(Nc2ccccc2)ccc2ccccc12 ?
// result active

// query What did this assay record as the result for COC([C@@H](OC(=O)c1ccccc1)[C@H](OC(=O)c1ccccc1)C(O)COC(=O)c1ccccc1)n1cc(C)c(=O)[nH]c1=O (stereo not given in full) ?
// result inactive

// query What did this assay record as the result for CC1CCC2C(C)C(=O)OC3OC4(C)CCC1C32OO4 (stereo not given) ?
// result inactive

// query What did this assay record as the result for O=c1[nH]c2cc(Cl)ccc2nc1/C(=N/Nc1ccccc1)C(O)c1ccco1 (stereo not given) ?
// result inactive

// query What did this assay record as the result for COC(=O)C1(O)c2ccccc2N=C2C(=O)c3ccccc3N21 (stereo not given) ?
// result inactive
